- tested_target: Nluc-BPTF-BD fusion construct (Homo sapiens, UniProt Q12830+Q96SW2)
- Construct: form ternary complexes with nanoluciferase-fused BPTF bromodomain and full-length BRD9 constructs; expressed in transfected cells; host or cells: HEK293T
- Sequence (Q16531 whole entry, the tested form may be a part): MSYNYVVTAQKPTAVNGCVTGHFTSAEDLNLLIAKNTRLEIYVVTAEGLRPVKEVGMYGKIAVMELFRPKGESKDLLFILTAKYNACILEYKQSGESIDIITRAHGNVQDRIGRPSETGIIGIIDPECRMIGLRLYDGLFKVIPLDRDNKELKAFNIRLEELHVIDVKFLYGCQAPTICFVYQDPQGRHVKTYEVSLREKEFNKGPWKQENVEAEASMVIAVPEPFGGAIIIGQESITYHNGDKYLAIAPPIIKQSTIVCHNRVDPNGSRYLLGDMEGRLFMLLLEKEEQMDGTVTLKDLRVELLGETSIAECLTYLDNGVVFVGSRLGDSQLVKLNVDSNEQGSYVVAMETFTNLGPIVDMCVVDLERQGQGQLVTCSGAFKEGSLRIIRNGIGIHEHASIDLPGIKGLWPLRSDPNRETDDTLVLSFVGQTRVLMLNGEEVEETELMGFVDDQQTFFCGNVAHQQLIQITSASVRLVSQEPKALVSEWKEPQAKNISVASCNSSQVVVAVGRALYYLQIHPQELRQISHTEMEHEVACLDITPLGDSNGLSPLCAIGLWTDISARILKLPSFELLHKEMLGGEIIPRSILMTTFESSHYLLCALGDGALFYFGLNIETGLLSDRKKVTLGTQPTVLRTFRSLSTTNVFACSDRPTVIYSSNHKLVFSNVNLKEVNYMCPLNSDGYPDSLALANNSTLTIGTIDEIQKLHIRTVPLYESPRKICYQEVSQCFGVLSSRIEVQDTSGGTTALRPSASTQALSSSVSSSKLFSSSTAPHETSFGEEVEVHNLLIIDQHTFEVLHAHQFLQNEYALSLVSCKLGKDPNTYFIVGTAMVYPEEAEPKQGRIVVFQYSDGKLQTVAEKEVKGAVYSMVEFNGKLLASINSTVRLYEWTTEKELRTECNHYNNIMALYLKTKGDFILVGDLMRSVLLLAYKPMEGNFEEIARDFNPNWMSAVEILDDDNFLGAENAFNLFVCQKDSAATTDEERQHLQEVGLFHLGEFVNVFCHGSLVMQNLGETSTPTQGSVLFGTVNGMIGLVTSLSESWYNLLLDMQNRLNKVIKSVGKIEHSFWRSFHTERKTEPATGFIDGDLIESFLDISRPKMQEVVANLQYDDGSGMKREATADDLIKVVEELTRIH
- Sequence (Q96SW2 whole entry, the tested form may be a part): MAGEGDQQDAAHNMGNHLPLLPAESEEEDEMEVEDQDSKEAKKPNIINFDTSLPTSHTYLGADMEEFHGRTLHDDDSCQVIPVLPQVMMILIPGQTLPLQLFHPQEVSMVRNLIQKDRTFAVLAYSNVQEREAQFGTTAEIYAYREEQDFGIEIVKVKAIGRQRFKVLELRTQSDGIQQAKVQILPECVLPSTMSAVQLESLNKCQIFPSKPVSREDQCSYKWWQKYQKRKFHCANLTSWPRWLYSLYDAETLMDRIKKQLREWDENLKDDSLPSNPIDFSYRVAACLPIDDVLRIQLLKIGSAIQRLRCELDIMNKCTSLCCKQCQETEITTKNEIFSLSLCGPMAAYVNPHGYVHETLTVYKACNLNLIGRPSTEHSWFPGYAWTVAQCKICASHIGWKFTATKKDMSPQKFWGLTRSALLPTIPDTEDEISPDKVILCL
- measurement_protocol: In-cell NanoBRET CRBN ternary complex assay with Nluc-BPTF-BD
- Type: cell-based
- test_parameters: 1 μM degrader, C-terminal Nluc-BPTF-BD fusion, HEK293T cells
# BRET ratio, fold increase over DMSO (in-cell ternary complex formation) per record follows
The figure you give is taken to be in fold; do not add the unit.

Cn1ncc(Nc2ccc3c(c2)CN(CCCCCCNC(=O)COc2cccc4c2C(=O)N(C2CCC(=O)NC2=O)C4=O)CC3)c(Cl)c1=O (stereo not shown) : 3.2

QUERY: # lookup: BRET ratio, fold increase over DMSO (in-cell ternary complex formation) of Cn1ncc(Nc2ccc3c(c2)CN(CCOCCOCCNC(=O)COc2cccc4c2C(=O)N(C2CCC(=O)NC2=O)C4=O)CC3)c(Cl)c1=O (stereo not shown)
RESULT: 1.6

QUERY: Quick one: BRET ratio, fold increase over DMSO (in-cell ternary complex formation) of Cn1ncc(Nc2ccc3c(c2)CCN(CCCCCCNC(=O)COc2cccc4c2C(=O)N(C2CCC(=O)NC2=O)C4=O)C3)c(Cl)c1=O (stereo not shown) ?
RESULT: 3.5

QUERY: Entry Cn1ncc(Nc2ccc3c(c2)CCN(CCOCCOCCNC(=O)COc2cccc4c2C(=O)N(C2CCC(=O)NC2=O)C4=O)C3)c(Cl)c1=O (stereo not shown) : reported BRET ratio, fold increase over DMSO (in-cell ternary complex formation) = ?
RESULT: 2.3

====

- tested_target: CECR2 bromodomain (Homo sapiens)
- Construct: His; purchased Reaction Biology RD-11-210
- Sequence (Q9BXF3 434-538 limits assumed): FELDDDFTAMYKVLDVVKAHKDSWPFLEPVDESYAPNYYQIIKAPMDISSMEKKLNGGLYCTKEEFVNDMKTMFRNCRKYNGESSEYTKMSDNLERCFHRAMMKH
- measurement_protocol: AlphaScreen assay with CECR2 bromodomain and biotinylated histone H4 KAc5,8,12,16 peptide
- Type: binding
measure_name: pIC50
Keep it numeric: pIC50 is minus log10 of the concentration in mol/L.

QUERY: Return pIC50 measured with CECR2 bromodomain (Homo sapiens) given this compound: Cn1ncc(Nc2ccc3c(c2)CCNC3)c(Cl)c1=O
RESULT: 5.78

Hey, just so you know, these numbers are from patent US20230391745A1.
